target: T1, ALK4 (activin type I receptor) (UniProt P36896 24-505, limits assumed)
T1 sequence (looked up): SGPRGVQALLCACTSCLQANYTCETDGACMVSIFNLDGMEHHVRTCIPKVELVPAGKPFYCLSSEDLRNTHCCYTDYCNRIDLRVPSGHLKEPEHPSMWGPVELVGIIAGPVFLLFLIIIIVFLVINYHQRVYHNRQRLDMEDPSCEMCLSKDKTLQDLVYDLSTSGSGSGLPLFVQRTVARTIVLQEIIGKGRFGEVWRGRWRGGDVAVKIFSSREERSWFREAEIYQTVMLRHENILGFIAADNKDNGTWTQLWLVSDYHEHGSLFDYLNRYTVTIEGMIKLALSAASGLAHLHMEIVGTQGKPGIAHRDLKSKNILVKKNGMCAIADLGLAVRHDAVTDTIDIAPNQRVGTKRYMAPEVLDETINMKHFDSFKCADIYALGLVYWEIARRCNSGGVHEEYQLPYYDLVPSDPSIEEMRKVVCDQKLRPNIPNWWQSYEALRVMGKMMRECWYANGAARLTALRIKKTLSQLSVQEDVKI
assaySummary: cell-based or functional assay
measureName: % Activin Activity (A3-luciferase assay in 293T cells)

binder: activin-A M108E (ligand, human, UniProt P08476 311-426, looked up) GLECDGKVNICCKKQFFVSFKDIGWNDWIIAPSGYHANYCEGECPSHIAGTSGSSLSFHSTVINHYRMRGHSPFANLKSCCVPTKLRPMSMLYYDDGQNIIKKDIQNEIVEECGCS
recordedValue: 3 % of wild type activin-A

binder: activin-A M91E (ligand, human, UniProt P08476 311-426, looked up) GLECDGKVNICCKKQFFVSFKDIGWNDWIIAPSGYHANYCEGECPSHIAGTSGSSLSFHSTVINHYRMRGHSPFANLKSCCVPTKLRPMSELYYDDGQNIIKKDIQNMIVEECGCS
recordedValue: 3 % of wild type activin-A

binder: activin-A (M108A) (ligand, human, UniProt P08476 311-426, looked up, mature; Radioiodinated by the chloramine T method for the crosslinking study; also called M108A activin-A; M108A mutant) GLECDGKVNICCKKQFFVSFKDIGWNDWIIAPSGYHANYCEGECPSHIAGTSGSSLSFHSTVINHYRMRGHSPFANLKSCCVPTKLRPMSMLYYDDGQNIIKKDIQNAIVEECGCS
recordedValue: 8 % of wild type activin-A

binder: activin-A I105E (ligand, human, UniProt P08476 311-426, looked up) GLECDGKVNICCKKQFFVSFKDIGWNDWIIAPSGYHANYCEGECPSHIAGTSGSSLSFHSTVINHYRMRGHSPFANLKSCCVPTKLRPMSMLYYDDGQNIIKKDEQNMIVEECGCS
recordedValue: 13 % of wild type activin-A
